Origin of the recorded values: ChEMBL document CHEMBL4011598

TARGET_DESC: Voltage-gated inwardly rectifying potassium channel KCNH2 (Homo sapiens, UniProt Q12809)
Sequence (Q12809 whole entry): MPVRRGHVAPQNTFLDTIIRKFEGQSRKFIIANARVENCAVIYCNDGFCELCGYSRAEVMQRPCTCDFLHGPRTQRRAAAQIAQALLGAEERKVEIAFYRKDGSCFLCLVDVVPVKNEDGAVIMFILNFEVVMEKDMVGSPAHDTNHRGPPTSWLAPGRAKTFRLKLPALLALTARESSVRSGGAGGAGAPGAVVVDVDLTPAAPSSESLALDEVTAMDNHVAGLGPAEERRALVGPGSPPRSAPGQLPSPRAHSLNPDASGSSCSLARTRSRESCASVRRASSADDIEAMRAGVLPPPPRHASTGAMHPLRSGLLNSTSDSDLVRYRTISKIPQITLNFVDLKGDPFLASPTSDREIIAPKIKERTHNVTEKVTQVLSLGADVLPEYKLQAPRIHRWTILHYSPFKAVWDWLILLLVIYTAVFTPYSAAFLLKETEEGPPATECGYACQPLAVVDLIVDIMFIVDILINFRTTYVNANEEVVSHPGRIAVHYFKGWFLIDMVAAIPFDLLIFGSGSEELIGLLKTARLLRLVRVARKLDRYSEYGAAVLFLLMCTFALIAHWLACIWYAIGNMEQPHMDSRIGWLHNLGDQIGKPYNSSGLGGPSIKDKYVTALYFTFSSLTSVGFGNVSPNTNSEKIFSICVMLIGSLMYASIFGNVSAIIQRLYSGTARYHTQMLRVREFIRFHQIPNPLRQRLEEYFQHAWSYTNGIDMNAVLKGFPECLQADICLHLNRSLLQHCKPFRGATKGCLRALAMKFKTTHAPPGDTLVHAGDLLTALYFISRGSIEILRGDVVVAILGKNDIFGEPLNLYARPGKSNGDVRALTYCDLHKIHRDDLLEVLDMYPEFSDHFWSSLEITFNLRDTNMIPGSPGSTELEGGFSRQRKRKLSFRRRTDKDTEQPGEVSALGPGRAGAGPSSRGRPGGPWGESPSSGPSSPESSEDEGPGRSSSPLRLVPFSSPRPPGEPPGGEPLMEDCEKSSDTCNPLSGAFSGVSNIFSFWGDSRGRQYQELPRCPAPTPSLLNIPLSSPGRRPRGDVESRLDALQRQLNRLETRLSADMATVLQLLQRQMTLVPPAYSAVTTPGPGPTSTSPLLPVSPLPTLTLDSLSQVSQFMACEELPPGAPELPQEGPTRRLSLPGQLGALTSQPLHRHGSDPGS
EXPERIMENTAL_DETAILS: Inhibition of human hERG by patch clamp method
MEASURED_METRIC: IC50

Task: // IC50 lookup, key: `COc1cc(-c2cccc(C(F)(F)F)c2)c(F)cc1-c1nccc2cc(S(=O)(=O)Nc3ccon3)ccc12`
Output: > 10 µM

----------
TARGET_DESC: Cytochrome P450 2D6 (Homo sapiens, UniProt P10635)
Sequence (P10635 whole entry): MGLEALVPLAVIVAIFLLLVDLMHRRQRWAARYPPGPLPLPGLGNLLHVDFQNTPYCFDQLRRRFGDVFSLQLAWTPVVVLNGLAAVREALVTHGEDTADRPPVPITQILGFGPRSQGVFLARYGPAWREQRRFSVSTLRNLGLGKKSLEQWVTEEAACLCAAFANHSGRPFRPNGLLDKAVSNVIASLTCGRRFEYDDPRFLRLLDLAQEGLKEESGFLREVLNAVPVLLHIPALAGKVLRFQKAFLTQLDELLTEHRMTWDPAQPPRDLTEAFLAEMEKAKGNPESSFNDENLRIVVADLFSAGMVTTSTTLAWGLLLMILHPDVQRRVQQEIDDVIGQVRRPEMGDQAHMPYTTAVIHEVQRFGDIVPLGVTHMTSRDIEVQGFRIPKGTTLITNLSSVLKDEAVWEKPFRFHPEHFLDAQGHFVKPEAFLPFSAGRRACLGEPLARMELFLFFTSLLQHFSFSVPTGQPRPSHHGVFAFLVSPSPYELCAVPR
pIC50: −log10 of the molar value.
MEASURED_METRIC: pIC50

Task: // pIC50 lookup, key: `COc1cc(-c2cccc(C(F)(F)F)c2)c(F)cc1-c1nccc2cc(S(=O)(=O)Nc3ccon3)ccc12`
Output: < 4.82
